Cited source for all entries: PubChem BioAssay (NCI)

# Tested on: ACHN renal
# PROTOCOL SUMMARY: NCI-60 one-dose screen, 48 h (100 = growth as untreated, 0 = no growth, -100 = all killed)
# CONDITION INFO: 10 µM unless noted
The panel holds about 83,000 compounds, 20% with a hit somewhere; the sample as a whole holds those more often. The source made the active and inactive calls. How the source made its calls: active means growth percent below 10; inactive means the rest.

| COMPOUND | EXPERIMENTAL SYSTEM | growth |
| --- | --- | --- |
| Cc1ccc2nc(NC(=O)CSc3nc(Nc4ccc([N+](=O)[O-])cc4)c(C#N)c(-c4ccccc4)n3)sc2c1 | ACHN renal | 90.7% (inactive) |
| CC(=O)C(C)Cc1cc2c(cc1C)C(C)(C)CCC2(C)C (stereo not given) | ACHN renal | 104% (inactive) |
| OC(COc1ccccc1Cl)COc1ccccc1Cl | ACHN renal | 97.3% (inactive) |
| O=S(=O)(Nc1cccc(Cl)c1)c1ccc(-c2cnc(C3CC3)o2)cc1 | ACHN renal | 37.1% (inactive) |
| CC1CC2Oc3ccc(Cl)cc3C(=O)N2O1 (stereo not given) | ACHN renal | 102% (inactive) |
| COc1ccc2oc3c(C)c4c(c(C)c3c2c1)C(=O)N(Cc1ccccc1)C4=O | ACHN renal | 88.3% (inactive) |
| CC/C=C/C/C=C/C/C=C/C/C=C/C/C=C/C/C=C/CCC(=O)Nc1ccn([C@@H]2O[C@H](CO)[C@@H](O)C2(F)F)c(=O)n1 | ACHN renal | 6.15% (active) |
| C[n+]1cccc(CC(=O)NO)c1 | ACHN renal | 98.4% (inactive) |
| COc1cc(OC)cc(C2CC(=O)Nc3c2c(C)nn3-c2nc3ccccc3[nH]2)c1 (stereo not given) | ACHN renal | 19.3% (inactive) |
| O=c1c2c3c(sc2n2c(-c4cn(-c5ccccc5)nc4-c4ccc(Cl)cc4)nnc2n1Cc1ccccc1)CCCC3 | ACHN renal | 99.2% (inactive) |

====

# Tested on: SF-295 CNS
# PROTOCOL SUMMARY: NCI-60 one-dose screen, 48 h
# CONDITION INFO: 10 µM unless noted
Compounds without any hit were thinned out: in the full panel of roughly 83,000, 20% have a hit. The source made the active and inactive calls. The calls were made as follows: active = growth percent below 10; inactive = the rest.
Possible outcomes: true = active, false = inactive

| COMPOUND | CAT |
| --- | --- |
| O=C1CCC2=C3C4CCCCC4C(=O)C4CCCC(OC2C1)C34 (centres undefined) | false |
| COc1ccc(-c2c(N)n[nH]c2-c2ccc(Cl)cc2O)cc1OC | false |
| COc1ccccc1CNCCCN1C(=O)c2ccc3c4c(ccc(c24)C1=O)C(=O)N(CCCNCCCCN)C3=O | true |
| Cc1cc(N2CCCC2)nc(NCc2cc(Nc3ccnc4cc(Cl)ccc34)ccc2F)n1 | true |
| C[n+]1cc2cc(C(N)=O)[nH]c3c(=N)c(Cl)c(N)c1c23 | false |
| CCN(CC)c1ccc(C(=O)c2ccc(N(CC)CC)cc2)cc1 | false |
| O=C1Nc2ccccc2/C1=C/c1cn(C(=O)c2c(Cl)cccc2Cl)c2ccccc12 | false |
| Clc1cccc(Cl)c1/C=C/c1cc(/C=C/c2c(Cl)cccc2Cl)[nH]n1 | false |
| Cc1nn(-c2ccccc2)c(Oc2ccc(Cl)cc2)c1/C=N\N=c1/sc2ccccc2n1C | false |
| O=[N+]([O-])c1ccc(N2c3ccncc3Sc3ccncc32)cc1 | false |
| Fc1cnc(NC2CC2)nc1-c1cnc2ccc(N3CCOCC3)cn12 | true |
| C=CCn1c(C)nc2cc(Nc3nc(Cl)nc4ccccc34)ccc21 | false |
| COc1ccccc1NC(=O)N/C(N)=N/c1nc2ccccc2s1 | false |
| COc1ccc2c(c1)[nH]c(=O)c1c3cccnc3cn21 | true |
| Cc1nc2ccccc2c(/C=C/c2ccc(Cl)cc2)c1C(=O)/C=C/c1ccc(F)cc1 | false |
| COc1ccc2c(c1)C(=O)/C(=C/c1ccc(OCC(=O)Nc3nccs3)cc1)O2 | false |
| COc1ccc(/C=C/c2c(C(=O)/C=C/c3ccc(F)cc3)c(C)nc3ccccc23)cc1 | false |
| N=C1C(c2nc(-c3ccc(Br)cc3)cs2)=C(O)CN1CC1CCCO1 (centres undefined) | false |
| Cc1cc(NCc2cc(Nc3ccnc4cc(Cl)ccc34)ccc2F)nc(Cl)n1 | false |
| C=C1C(=O)O[C@H]2[C@H]1CC/C(COC(=O)C(=O)c1cn(C)c3ccc(OC)cc13)=C\CC[C@@]1(C)O[C@@H]21 | false |
| Cc1ccc(S(=O)(=O)N/N=C\c2cc(Cl)ccc2O)cc1 | false |
| Cc1ccc(-n2nc3c(c(C#N)c2=O)CC(c2ccccc2Cl)C([N+](=O)[O-])=C3O)cc1 (centres undefined) | false |
| COc1cccc(-c2nc3sccn3c2-c2ccnc(NCCNS(=O)(=O)c3ccc(C(F)(F)F)cc3)c2)c1 | false |
| O=C(CCCCCCN1CC(=O)N2[C@@H](c3ccccc3Cl)c3[nH]c4ccccc4c3C[C@H]2C1=O)NO | false |
| Cc1cc(O)c(C2=NN(c3ccc(S(N)(=O)=O)cc3)C(c3ccccc3Cl)C2)cc1Cl (centres undefined) | false |
| CC1(C)CC(=O)CC2(C1)N=C(N)Nc1nc3ccccc3n12 (centres undefined) | false |
| COc1ccc2[nH]c(O)c(C(=Nc3ccc(N(C)C(=O)CN4CCN(C)CC4)cc3)c3ccccc3)c2c1 | false |
| O=c1c2cc(F)ccc2sc2c(Nc3cccnc3)nc3ccccc3c12 | false |
| O=C1OC(c2nc3ccccc3s2)=C/C1=C\c1ccc(O)cc1 | false |
| C[C@@H]1N=C(c2ccc3ccccc3n2)Nc2nc3ccccn3c2C1=O | false |
| NC(=O)c1ccc[n+]([C@@H]2O[C@H](COP(=O)([O-])OP(=O)(O)OC[C@H]3O[C@@H](n4cnc5c(N)ncnc54)[C@H](O)[C@@H]3O)[C@@H](O)[C@H]2O)c1 | false |
| c1ccc2c(c1)nc(CN1CCOCC1)n1cc(N3CCCC3)nc21 | false |
| O=c1c2cc(F)ccc2sc2c(NCCN3CCCCC3)nc3ccccc3c12 | false |
| O=C(NCCCNc1cc(-c2cn(-c3ccccc3)nc2-c2cccc(O)c2)ccn1)c1ccccc1 | false |
| Cc1cc(NCc2cc(Nc3ccnc4cc(Cl)ccc34)ccc2F)nc(N2CCCC2)n1 | true |
| N#Cc1c2c(nn(-c3ccccc3)c1=O)C(O)=C([N+](=O)[O-])C(c1ccccc1)C2 (centres undefined) | false |
| C(=N\Nc1ncc(-c2cc3cc4c(cc3o2)OCO4)s1)/c1ccco1 | false |
| O=C(/C=C/c1ccco1)c1ccc(Nc2nc(Nc3ccc(F)cc3)nc(Nc3ccc(Cl)cc3)n2)cc1 | false |
| Cc1cc(C)c2c(-c3nnc(N)s3)cc(=O)oc2c1 | false |

====

Recorded growth values for a group of compounds are listed next.
# Test system: CAKI-1 renal
# PROTOCOL SUMMARY: NCI-60 one-dose screen, 48 h (100 = growth as untreated, 0 = no growth, -100 = all killed)
# CONDITION INFO: 10 µM unless noted
Compounds without any hit were thinned out: in the full panel of roughly 83,000, 20% have a hit.

| COMPOUND | UNIT ABBREVIATION | growth |
| --- | --- | --- |
| COc1cccc(-c2nn(-c3ccccc3)cc2-c2ccnc(NCCCNC(=O)c3ccccc3)c2)c1 | % | 67.3 |
| COc1cc(-c2n/c(=C\c3c(O)[nH]c4ccc(Cl)cc34)cc3c2=Nc2ccccc2-3)cc(OC)c1OC | % | 13.2 |
| CSc1n(Cc2ccc3ccccc3c2)c(C)c[n+]1Cc1ccc2ccccc2c1 | % | -22.8 |
| COc1cc(N=Nc2cc(Cc3ccc(N(C)C)cc3)c(N)cc2N(C)C)c2ncccc2c1 | % | 13.5 |
| O=C1/C(=C\c2cccnc2)SC(=S)N1CCc1ccc(O)cc1 | % | 30.5 |
| CCOP(=O)(OCC)C1CP(=O)(c2ccccc2)CC(C)=C1Cl (stereo not given) | % | 108 |
| COC1=C(OC)C(=O)C(OC)=C(OC)C1=O | % | 98.9 |
| Cc1nn(-c2ccccc2)c2nc3c(c(-c4ccc(Cl)cc4)c12)CNC1(CCSCC1)N3 | % | 95.4 |
| O=C(Nc1ccccc1Cl)Oc1ccc(-c2ccccc2)cc1 | % | 81.8 |
| O=C(Nc1cccc(C(F)(F)F)c1)Nc1cccc(C(F)(F)F)c1 | % | 16.4 |

====

Readings of growth for the listed molecules
# System: MDA-MB-231 breast
# PROTOCOL SUMMARY: NCI-60 one-dose screen, 48 h (100 = growth as untreated, 0 = no growth, -100 = all killed)
# CONDITION INFO: 10 µM unless noted
This is part of a sample that, as a whole, favours compounds with a hit. Of some 83,000 tested, about 20% had one in any assay.
PARAMETER MEASURED: growth (%)

| SMILES STR | ASSAY VALUE |
| --- | --- |
| c1ccc2c(c1)nc(CN1CCOCC1)n1cc(N3CCCC3)nc21 | 104 |
| CCn1c(C)nc2cc(C(N)=O)ccc21 | 113 |
| O=c1c2c3c(sc2n2c(-c4cn(-c5ccccc5)nc4-c4ccc(Cl)cc4)nnc2n1Cc1ccccc1)CCCC3 | 80.3 |
| OC(COc1ccccc1Cl)COc1ccccc1Cl | 101 |
| NC(=O)c1ccc[n+](Cc2ccc(Cl)cc2Cl)c1 | 103 |
| CN(C)c1ccc(-c2ccc3[nH]c(=O)nc(-c4ccccc4)c3c2)cn1 | 44.6 |
| O=C1NC(=Nc2ccc(Cl)cc2)S/C1=C\c1cn(-c2ccccc2)nc1-c1ccccc1 | 88.4 |
| CCCCCCCCCCN(CCCCCCCCCC)CC(=O)c1ccc2cc(Br)c3ccccc3c2c1 | 67.1 |
| CCN(CC)CCN1C(=O)c2c(c(C)c3c(oc4cc(O)ccc43)c2C)C1=O | -68.7 |
| C[C@H]1[C@H]2[C@H]3CC[C@@H]4[C@@]5(C)C/C(=C/c6ccco6)C(=O)C(C)(C)[C@@H]5CC[C@@]4(C)[C@]3(C)CC[C@]23CO[C@]1(C)[C@@H](C(=O)/C=C\c1ccco1)C3 | 94.9 |
